# System: MS2 coat protein
# run description: apparent KD of MS2 coat protein; higher = weaker reporter binding
# condition label: Eterna round: R107; input ligand: tryptophan 2.4 mM
measured metric: apparent KD of MS2 coat protein (nM)
Numbers only here, please. The scale is nM.

Recorded results for 2 sequences are shown here.
GCUAGGUCUACGGCCGCCACUAGACGUGGGUAAGACAUGAGGAUCACCCAUGUACUACGGGCGAUUAGGACCGGGUAGACCUAGC [SSTB NP+V+V2 #16 Same Structure] ... 66.9
AUGUCGUUGAAUACAGCGGCAUGGAGUGAUACCAGAAUGAUCAAAUUCCCUUGGCAGCAUCACAUGAGGAUCACCCAUGUUCGAU [SSTheo A #16] ... 40.9

-- ask // returns reported apparent KD of MS2 coat protein for input GCGUACGAUCGGGAUACCAGACAUUGCCGUUAGGGUGAACCUGAGGAACACCCAGGUUUUGUCCCUUGGCAGCCCGAUCGUACGC [ETB NP+V+V2 #8 Diff Apt, Same Structure]
-- reply 27.5

-- ask // returns reported apparent KD of MS2 coat protein for input ACAUGAGGAUCACCCAUGUUCCUCAUUGAUACCAGUGAAUUUAGACGCCCUUGGCAGCGAGUUUUUUUAGAAGAAGUUUUUUUUU [6.F]
-- reply 929

-- ask // returns reported apparent KD of MS2 coat protein for input GAUGAACUAUUUGAUACCAGACUACAUGAGGAUCACCCAUGUGUGUUAAUUUUUCAGUCAGUCCCUUGGCAGCAAAUAGUUUAUC [XTheo B #2]
-- reply 32.1

-- ask // returns reported apparent KD of MS2 coat protein for input GAUGAUAUUGCAGAUACCAGACACAUGAGGAUCACCCAUGUCUCUGUGAUGUAGGAUUGUGUCCCUUGGCAGCUGCGAUAUCAUC [Chile]
-- reply 175

-- ask // returns reported apparent KD of MS2 coat protein for input GAGCUGAUGUAGAGCUUAUAUAAGAGAGAUACCAGUACAGAAAUGUACCCUUGGCAGCUCAACUUUACAUGAGGAUCACCCAUGU [Ex Theophylline A 20]
-- reply 18.1

-- ask // returns reported apparent KD of MS2 coat protein for input "UGUAUGUGAUCUGAUACCAGUCCAACUGGUAAAAUAUGAGGAUCACCCAUAUAAAAUUGGGACCCUUGGCAGCAGAUCGCAUACU"
-- reply 492

-- ask // returns reported apparent KD of MS2 coat protein for input "UGUAUGGACUGAAGGAGCGGGUAAUAAACCUGAGGAUCACCCAGGUAAUAGGCGAAAGCCGCCCAGGUAGGUCGCAGUCCAUACU"
-- reply 12.5

---

apparent KD of MS2 coat protein: recorded values
# Test system: MS2 coat protein
# run description: apparent KD of MS2 coat protein; designed switch direction (-1 OFF switch, 1 ON switch): -1; higher = weaker reporter binding
# condition label: Eterna round: R95; input ligand: FMN 200 uM

Recorded results for 5 sequences are shown here.
UAAAAGUCAGGAUAUGCGAGAGAUUGAAGUAUGGAAAGGUAGCAGAAGGGACAUGAGGAUCACCCAUGUGAGGA [JR_Exclu4_Sub095] (puzzle: Exclusion 4) ... 51.1 nM
CCAUCGUGUGUGAGGAUAUGCUGGUCCUUGGAUCAGCAGAAGGCACAUGAGGAUCACCCAUGUGAAAACGGUGG [Mat - Exclusion 4 - JL Mod - D86] (puzzle: Brourd's mod of Exclusion 4) ... 67 nM
GGUCGGCGAGGAUAUACAUGAGGAUCACCCAUGUGAUUUAGUGCACGCGUACGUGUACGUAGAAGGCGCUGACG [JL-ex3-3.27 salish99 mod] (puzzle: Exclusion 3) ... 127 nM
UAAUAAAGUGUGAGGAUAUGCUGGUCGAUAGAUCAGCAGAAGGCACAUGAGGAUCACCCAUGUAAUAUAUAAAU [Mat - Exclusion 4 - JL Mod - D58] (puzzle: Brourd's mod of Exclusion 4) ... 258 nM
AUGAGCAGACGGAGAUCCAACAUGAGGAUCACCCAUGUCUCAAAAGCUUUUUGCUCAUCUUAUUGUACCUUGGUGCU [Mat - Sensor v3 - turn-off var 1 - JL Mod - D16] (puzzle: Sensor v3, turn-off variant 1) ... 167 nM

-- ask // returns reported apparent KD of MS2 coat protein for input CGGUACUGAGGAUAUACAUGAGGAUCACCCAUGUGUUCUAGCUAGCGUACUGGCAUUAGUAGAAGGCGGUGCUG [JL-ex3-3.18 Brourd mod] (puzzle: Exclusion 3)
-- reply 28.9 nM

-- ask // returns reported apparent KD of MS2 coat protein for input CUGGUCCGAGGAUAUAUUAAGUGAUACAUGAGGAUCACCCAUGUUAUUUGAUGGAUGUUAAUAGAAGGCGGACUAG [JL-ex5-3.18] (puzzle: Exclusion 5)
-- reply 78.3 nM

---

apparent KD of MS2 coat protein: recorded values
# Test system: MS2 coat protein
# run description: apparent KD of MS2 coat protein; higher = weaker reporter binding
# condition label: Eterna round: R101; input ligand: none
Numbers only here, please. The scale is nM.

Recorded results for 2 sequences are shown here.
AAAGAUUUUCAAGGAUAUGACUCCGAAACGGAGUCAGAAGGUGAGGAUCACCCACCUAGCUCAGCGUCGAAAGACGCUGAGCAA [#SharedSequence ExNG1 - 27] (puzzle (switch architecture): Exclusion NG 1) ... 13.5
AAAUAAAUCGAAGGAUAUGACCCUCGAGGUGACUAAAAGUCACCUCGAGGGUCAGAAGGUCGAGGAUCACCCGAUCUAAAUAAA [#SharedSequence SLExNG1: 2-1] (puzzle (switch architecture): Small Loop Exclusion NG 1) ... 16.2

-- ask // returns reported apparent KD of MS2 coat protein for input AAUAAUCUUUAAGGAUAUGACUCCGAAACGGAGUCAGAAGGUGAGGAUCACCCAUCUAGCUCAGGGUCGAAAGACCCUGAGCAA [#SharedSequence - ExNG1-11] (puzzle (switch architecture): Exclusion NG 1)
-- reply 49.6

---

apparent KD of K4 kissing-loop reporter: recorded values
# Tested on: K4 kissing-loop RNA reporter;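 also: bound reporter read as fluorescence of individual clusters on recovered sequencing chips by microscopy, with normalized cluster intensities fitted with a binding model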
# run description: apparent KD of K4 kissing-loop reporter; higher = weaker reporter binding
# condition label: Eterna round: R107; input ligand: tryptophan 2.4 mM
Numbers only here, please. The scale is nM.

AAGUAGCUCUCGGCCGCCACUCCUCAGUGAUGUUGAGAUAUUAAUUGCCAAUUGGCGUAUUUAAAGAGGACCGGGAGAGCUACAA [AK3 SS Tryptophan B] ... 117
CGGAUGUAGUGAUGUUAUAUUAGAUGUAGACGAGGACCGGUACGGCCGCCACUCGUGAUGGCUGCUAGCGCGUUGCGAGGUUUGC [ExTryptoA.Co] ... 386
GAUUCUGUUCGAAAGAACGGAAUCACGGAAGGAGCGAGAGAAAUCUCAGGUAGGUCGCCGAAUUUUAGAUAGUGAUGUUAUCAUU [Arginine A K4 1] ... 711
AAGACUGCAGGAAGGAGCGGCGGACGGAGUGAUGUUCCGGCUAGUGAUGUUAGCAAACACCGCCAGGUAGGUCGCCUGUUGCUCU [Same State Arginine B GF7] ... 128
GGAUAGGAUAGAGGAUAUGGAUUAGGCAAGAAUAACUUGUCUUGUAAAUCCAUGAGGAGUGAUGUUCCAGAAGGCUGUCCUAUCG [MatMod 6 - Jieux - Exclusion - FMN B] ... 94.3

-- ask // returns reported apparent KD of K4 kissing-loop reporter for input AGGGAUGAUGGAUAAAUAAACAAAAGGGAUACCAGUCAAAUAAUAGGCCCUUGGCAGCUUUAGAUCAGUGAUGUUGAAGAUAUUG [Theophylline A Same State; Euphoria Solution]
-- reply 78.5

-- ask // returns reported apparent KD of K4 kissing-loop reporter for input "UGACUGGACUGAAGGAGCGCGAAACUCCUAGUGAUGUUAGGAUAACGAGACAAAGUCUCGACGCAGGUAGGUCGCAGUCUAGUCU"
-- reply 120

-- ask // returns reported apparent KD of K4 kissing-loop reporter for input AUUCUUAUAAUAACACUAUAUACAACUGAAGGAGCGACAAUAAAGUCAGGUAGGUCGCAGAAUAAAUGAGUGAUGUUCAUUUUUA [JR_ExcArginiA_Sub011]
-- reply 86.8

---

# Test system: MS2 coat protein
# run description: apparent KD of MS2 coat protein; higher = weaker reporter binding
# condition label: Eterna round: R107; input ligand: tryptophan 2.4 mM
Assign a class from recorded apparent KD of MS2 coat protein; defined classes: category 1 = under 20 nM, category 2 = from 20 nM up to 50 nM, category 3 = 50 nM and over

GGCCCGGACUUGGAAUGGGUGUUUCCUUCACGAGGACCGGUACGGCCGCCACUCGAAGACAUGAGGAUCACCCAUGUAGUCGACC [Soleti] ... category 1
UGUAUGGACUGAAGGAGCGGAUGAUAACCUGAGGAUCACCCGGGUAAUAAGGCGAAAGCCAUCCAGGUAGGUCGCAGUCCAUACU ... category 3
ACAUUUAACUGAAGGAGCGUGAUAUUUACAUGAGGAUCACCCAUGUCUAUCAUGAGAUAUUCACAGGUAGGUCGCAGACUAAUGA [JR_ExcArginiB_Sub005] ... category 2
AGCUCAGAGAGUGAUACCAGACUACAUGAGGAUCACCCAUGUUACUUUUAAAUAUCAUGAGUCCCUUGGCAGCACAAGAAGAGCA [JR_ExcTheophyB_Sub016] ... category 3
CAUACUUUAUCCUAUGAGCCUAUUUGUGAUACCAGCAUCUAAAUUUGCCCUUGGCAGCACUUACAUGAGGAUCACCCAUGUUUUA [JR_NU_SSTheophyA_Sub028] ... category 2

-- ask Which apparent KD of MS2 coat protein band matches GAGCUGAUGUAGAGCGAAUAUACGAGAGAUACCAGUACAGAAAUGUACCCUUGGCAGCUCAACUUUACAUGAGGAUCACCCAUGU [Ex Theophylline A 22] ?
-- reply category 1

-- ask Which apparent KD of MS2 coat protein band matches "AAUAACUUGAGGAUCACCCAAGUAAAAGAUACCAGAGUGAUGAUCCUCCCUUGGCAGCUUAACGCUGAUUGAUUACAAUCAGCGA" ?
-- reply category 2
